The measured values listed here are drawn from patent US20210405025A1.

Test system: relapsed AML cells
Assay: Drug sensitivity assay, 1,536-well, 3-day culture with individual approved drugs at 10 μM, viability by alamarBlue
Format: cell-based, human
Conditions: number of relapsed AML cases out of 18 tested with >70% cell death; 10 μM, 3-day culture
endpoint label: #Cases >70% cell death
Please respond with just the number, no unit label.

CCNC1=Nc2ccc(Cl)cc2C(C)(c2ccccc2)O1 (stereo not shown) :: 4
CCOC(=O)C1=C[C@]2(CC)CCCN3CCc4c(n1c1ccccc41)[C@@H]32 :: 1
N#CN=C(NCCCCCCOc1ccc(Cl)cc1)Nc1ccncc1 :: 16
CCCSc1ccc2nc(NC(=O)OC)[nH]c2c1 :: 9

Supply recorded #Cases >70% cell death for Clc1ccc(COC(Cn2ccnc2)c2ccc(Cl)cc2Cl)c(Cl)c1 (stereo not shown) here.
1

In one line, give reported #Cases >70% cell death of the entry "Cn1c(C#N)ccc1-c1ccc2c(c1)C(C)(C)OC(=S)N2" .
5

Using the record for "CC(C)(C)c1cnc(CSc2cnc(NC(=O)C3CCNCC3)s2)o1" , state its measured #Cases >70% cell death.
18
